B1: Ribonuclease HI, P0A7Y4 (parent)
chain: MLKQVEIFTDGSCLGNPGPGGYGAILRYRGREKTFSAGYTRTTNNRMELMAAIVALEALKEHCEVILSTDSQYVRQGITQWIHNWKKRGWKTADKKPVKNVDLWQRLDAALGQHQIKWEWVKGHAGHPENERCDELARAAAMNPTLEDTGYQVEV

Variants of: B1
Conditions: Escherichia coli (strain K12); pH 3; Thermal; CD; glycine-HCl 10 mM; NaCl 0.1 M; reversible: yes; structure 2RN2; whole UniProt chain shown
value-kind: unfolding enthalpy (van 't Hoff)
Give the figure together with its unit, number first.

Look over these answered cases.
INSERT INTO assay_data (mutant_label, value_kind, reading) VALUES
  ('V74L', 'unfolding enthalpy (van ''t Hoff)', '119 kcal/mol'),
  ('D134H', 'unfolding enthalpy (van ''t Hoff)', '106 kcal/mol'),
  ('H62P', 'unfolding enthalpy (van ''t Hoff)', '110 kcal/mol');

Kindly review the next variant as well.
The recorded unfolding enthalpy (van 't Hoff) for G23A is 99.3 kcal/mol

Every entry's value here was drawn from FireProtDB (doi:10.1021/bi00025a018).
